All figures here come from patent US10472395B2.

test system: BT-474 human mammary gland ductal carcinoma cells; test: Inhibitory response of test compounds against BT-474 cells (Cell Titer-Glo, 72 h); format: cell-based; settings: Homo sapiens
Numbered stars: 1 amine (or outer) side, 2 acyl side, 3 side chain; on linkers, the order of the positions; unused ones are H or OH. Bridge positions count the residues as written; N and C are the ends. Square brackets hold non-standard residues; d marks the D form. Peptide text beside a SMILES is read from it. ξ: configuration not given here. X10 = C/C(=C\CCCCO[*:2])C(=O)[*:1]; X11 = C/C(=C\CCO[*:2])C(=O)[*:1]; X9 = C/C(=C\CCCO[*:2])C(=O)[*:1]; dNMeF = CN[C@H](Cc1ccccc1)C(=O)O; Ile(3ξ) = CCC(C)[C@H](N)C(=O)O; dHica = CC(C)C[C@@H](O)C(=O)O; Sar = CNCC(=O)O
Provide the recorded IC50 for the entries that follow.

Lab note: measured IC50 of C/C=C(\C)[C@H]1OC(=O)[C@@H](C)NC(=O)[C@H]([C@H](C)CC)NC(=O)CN(C)C(=O)[C@@H](Cc2ccc(OCc3ccccc3)cc2)N(C)C(=O)[C@H](C)NC(=O)[C@@H](CC(C)C)OC(=O)/C(C)=C/C=C/[C@@H]1C [Compound 98] was < 0.02 µM

Measured IC50 of CCC(C)[C@@H]1NC(=O)CN(C)C(=O)[C@@H](Cc2ccccc2)N(C)C(=O)[C@H](C)NC(=O)[C@@H](CC(C)C)OC(=O)/C(C)=C/CCCCOC(=O)CNC1=O (some centres unmarked) [Compound 79] ([dHica]A[dNMeF][Sar][Ile(3ξ)]G; linker N-C via X10) : > 10 µM

Notebook: C/C=C(\C)[C@H]1OC(=O)[C@@H](C)NC(=O)[C@H]([C@H](C)CC)NC(=O)CN(C)C(=O)[C@@H](Cc2ccc(Cl)cc2)N(C)C(=O)[C@H](C)NC(=O)[C@@H](CC(C)C)OC(=O)/C(C)=C/C[C@H](OCSC)[C@@H]1C [Compound 61] , IC50 read as < 0.02 µM

// recorded IC50 for C/C=C(\C)[C@H]1OC(=O)[C@@H](C)NC(=O)[C@H](C(C)CC)NC(=O)CN(C)C(=O)[C@@H](Cc2ccccc2)N(C)C(=O)[C@H](C)NC(=O)[C@@H](CC(C)C)OC(=O)/C(C)=C/C[C@H](OCSC)[C@@H]1C (some centres unmarked) [Compound 94] : < 0.02 µM

Per the record, CCC(C)[C@@H]1NC(=O)CN(C)C(=O)[C@@H](Cc2ccccc2)N(C)C(=O)[C@H](C)NC(=O)[C@@H](CC(C)C)OC(=O)/C(C)=C/CCOC(=O)[C@@H](C)NC1=O (some centres unmarked) [Compound 12] ([dHica]A[dNMeF][Sar][Ile(3ξ)][dA]; linker N-C via X11) has IC50 of > 10 µM

Query C/C=C(\C)[C@H]1OC(=O)[C@@H](C)NC(=O)[C@H](C(C)CC)NC(=O)CN(C)C(=O)[C@@H](Cc2ccc(O)cc2)N(C)C(=O)[C@H](C)NC(=O)[C@@H](CC(C)C)OC(=O)/C(C)=C/CC[C@@H]1C (some centres unmarked) [Compound 102] yields IC50 of < 0.02 µM

Noted for CCC(C)[C@@H]1NC(=O)CN(C)C(=O)[C@@H](Cc2ccccc2)N(C)C(=O)[C@H](C)NC(=O)[C@@H](CC(C)C)OC(=O)/C(C)=C/CCCOC(=O)[C@H](C)NC1=O (some centres unmarked) [Compound 4] ([dHica]A[dNMeF][Sar][Ile(3ξ)]A; linker N-C via X9) : its IC50 reads > 10 µM

# IC50 (compound: CCC(C)[C@@H]1NC(=O)CN(C)C(=O)[C@@H](Cc2ccccc2)N(C)C(=O)[C@H](C)NC(=O)[C@@H](CC(C)C)OC(=O)/C(C)=C/CCCOC(=O)[C@H](CCCCN)NC1=O (some centres unmarked) [Compound 60] ([dHica]A[dNMeF][Sar][Ile(3ξ)]K; linker N-C via X9) ) is > 10 µM

----------
tested on: BT-474 human mammary gland ductal carcinoma cells; experiment: Inhibitory response of test compounds against BT-474 cells (Cell Titer-Glo, 72 h); format: cell-based; details: Homo sapiens
pIC50: −log10 of the molar value. Numbered stars: 1 amine (or outer) side, 2 acyl side, 3 side chain; on linkers, the order of the positions; unused ones are H or OH. Bridge positions count the residues as written; N and C are the ends. Square brackets hold non-standard residues; d marks the D form. Peptide text beside a SMILES is read from it. ξ: configuration not given here. X8 = C/C=C(\C)[C@@H](O[*:2])[C@@H](C)CC/C=C(\C)C(=O)[*:1]; X10 = C/C(=C\CCCCO[*:2])C(=O)[*:1]; dNMeF = CN[C@H](Cc1ccccc1)C(=O)O; Ile(3ξ) = CCC(C)[C@H](N)C(=O)O; dHica = CC(C)C[C@@H](O)C(=O)O; dNMeA = CN[C@H](C)C(=O)O; Abu = CC[C@H](N)C(=O)O; Sar = CNCC(=O)O
readout.label: pIC50

The compound CCC(C)[C@@H]1NC(=O)CN(C)C(=O)[C@@H](Cc2ccccc2)N(C)C(=O)[C@H](C)NC(=O)[C@@H](CC(C)C)OC(=O)/C(C)=C/CCCCOC(=O)[C@@H](C)N(C)C1=O (stereo partly shown) [Compound 14] ([dHica]A[dNMeF][Sar][Ile(3ξ)][dNMeA]; linker N-C via X10) on BT-474 human mammary gland ductal carcinoma cells: pIC50 was < 5.00

Known value: BT-474 human mammary gland ductal carcinoma cells pIC50 of the compound CCC(C)[C@@H]1NC(=O)CN(C)C(=O)[C@@H](Cc2ccccc2)N(C)C(=O)[C@H](C)NC(=O)[C@@H](CC(C)C)OC(=O)/C(C)=C/CCCCOC(=O)[C@H](CC)NC1=O (stereo partly shown) [Compound 78] ([dHica]A[dNMeF][Sar][Ile(3ξ)][Abu]; linker N-C via X10) equals 5.00 to 6.70

Sample C/C=C(\C)[C@H]1OC(=O)[C@@H](C)NC(=O)[C@H]([C@H](C)CC)NC(=O)CN(C)C(=O)[C@@H](Cc2ccccc2)N(C)C(=O)[C@H](C)NC(=O)[C@@H](CC(C)C)OC(=O)/C(C)=C/C[C@H](OC(=O)NCCCOCCOCCOCCCNC(=O)c2ccc(C(C)=O)cc2)[C@@H]1C [Compound 116] , system: BT-474 human mammary gland ductal carcinoma cells. Its pIC50 is > 7.70

Measured on BT-474 human mammary gland ductal carcinoma cells, C/C=C(\C)[C@H]1OC(=O)[C@@H](C)N(C)C(=O)[C@H](C(C)CC)NC(=O)CN(C)C(=O)[C@@H](Cc2ccccc2)N(C)C(=O)[C@H](C)NC(=O)[C@@H](CC(C)C)OC(=O)/C(C)=C/CC[C@@H]1C (stereo partly shown) [Compound 100] ([dHica]A[dNMeF][Sar][Ile(3ξ)][dNMeA]; linker N-C via X8) has a documented pIC50 of > 7.70

----------
Kindly state IC50 for each of the entries shown.
system: BT-474 human mammary gland ductal carcinoma cells; test: Inhibitory response of test compounds against BT-474 cells (Cell Titer-Glo, 72 h); type: cell-based; conditions: Homo sapiens
Numbered stars: 1 amine (or outer) side, 2 acyl side, 3 side chain; on linkers, the order of the positions; unused ones are H or OH. Bridge positions count the residues as written; N and C are the ends. Square brackets hold non-standard residues; d marks the D form. Peptide text beside a SMILES is read from it. ξ: configuration not given here. X4 = C/C=C(\C)[C@@H](N[*:1])[C@@H](C)[C@H](O)C/C=C(\C)C(=O)O[C@H](CC(C)C)C(=O)[*:2]; X9 = C/C(=C\CCCO[*:2])C(=O)[*:1]; dNMeF = CN[C@H](Cc1ccccc1)C(=O)O; Ile(3ξ) = CCC(C)[C@H](N)C(=O)O; dHica = CC(C)C[C@@H](O)C(=O)O; dNMeA = CN[C@H](C)C(=O)O; Sar = CNCC(=O)O

The value of IC50 measured for the compound C/C=C(\C)[C@H]1NC(=O)[C@@H](C)NC(=O)[C@H](C(C)CC)NC(=O)CN(C)C(=O)[C@@H](Cc2ccccc2)N(C)C(=O)[C@H](C)NC(=O)[C@@H](CC(C)C)OC(=O)/C(C)=C/C[C@@H](O)[C@@H]1C (some centres unmarked) [Compound 19] (cyclo(A[dNMeF][Sar][Ile(3ξ)][dA][X4])) turned out to be > 10 µM

Entry CCC(C)[C@@H]1NC(=O)CN(C)C(=O)[C@@H](Cc2ccccc2)N(C)C(=O)[C@H](C)NC(=O)[C@@H](CC(C)C)OC(=O)/C(C)=C/CCCOC(=O)[C@@H](C)N(C)C1=O (some centres unmarked) [Compound 10] ([dHica]A[dNMeF][Sar][Ile(3ξ)][dNMeA]; linker N-C via X9) , IC50 reported as > 10 µM
